The measurements presented in this section are drawn from patent US20240209076A1.

# subject.of.test: T1, recombinant human IL-6 (human, UniProt P05231 30-212)
# T1 construct: Bought protein
# test.method.notes: SPR Biacore, supernatant Ab on Protein A chip, IL-6 analyte, 25 C
For each of the binders below, state its kon.
Numbers only, in M⁻¹ s⁻¹.

Take a look at these entries with their results.
anti-IL-6 antibody, heavy chain variant II (M34W, G66D, I108V) / light chain variant IV (M32L, M50A, N52S, M88Q) (antibody, V domains shown, See note of m39; also called M34W, G66D, I108V/ M32L, M50A, N52S, M88Q; II/IV) VH: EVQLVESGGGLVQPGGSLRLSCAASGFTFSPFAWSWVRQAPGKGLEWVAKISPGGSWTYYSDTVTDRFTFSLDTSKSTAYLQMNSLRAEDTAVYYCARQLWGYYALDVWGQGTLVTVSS VL: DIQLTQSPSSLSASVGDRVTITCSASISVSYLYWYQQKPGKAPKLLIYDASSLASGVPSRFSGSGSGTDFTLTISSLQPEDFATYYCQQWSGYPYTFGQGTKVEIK | 559000
anti-IL-6 antibody, light chain S51D (heavy chain WT) (antibody, V domains shown, See note of m2; also called WT / S51D) VH: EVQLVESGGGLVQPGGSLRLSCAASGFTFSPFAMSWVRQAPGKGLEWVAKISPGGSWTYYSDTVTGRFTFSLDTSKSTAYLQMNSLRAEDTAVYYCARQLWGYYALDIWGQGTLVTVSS VL: DIQLTQSPSSLSASVGDRVTITCSASISVSYMYWYQQKPGKAPKLLIYDMDNLASGVPSRFSGSGSGTDFTLTISSLQPEDFATYYCMQWSGYPYTFGQGTKVEIK | 729000
anti-IL-6 antibody, heavy chain variant II (M34W, G66D, I108V) / light chain variant V (M32L, M50D, M88Q) (antibody, V domains shown, See note of m39; also called M34W, G66D, I108V/ M32L, M50D, M88Q; II/V) VH: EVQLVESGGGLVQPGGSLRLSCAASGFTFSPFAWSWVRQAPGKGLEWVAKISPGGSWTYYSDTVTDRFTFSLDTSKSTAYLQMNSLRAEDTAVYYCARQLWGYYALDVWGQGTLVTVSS VL: DIQLTQSPSSLSASVGDRVTITCSASISVSYLYWYQQKPGKAPKLLIYDDSNLASGVPSRFSGSGSGTDFTLTISSLQPEDFATYYCQQWSGYPYTFGQGTKVEIK | 700000

For each listed entry, give its kon.
1. anti-IL-6 antibody, light chain T96L (heavy chain WT) (antibody, V domains shown, See note of m2; also called WT / T96L) VH: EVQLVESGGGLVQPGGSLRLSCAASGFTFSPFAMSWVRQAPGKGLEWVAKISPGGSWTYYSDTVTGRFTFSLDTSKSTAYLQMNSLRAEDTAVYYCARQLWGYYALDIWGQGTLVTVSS VL: DIQLTQSPSSLSASVGDRVTITCSASISVSYMYWYQQKPGKAPKLLIYDMSNLASGVPSRFSGSGSGTDFTLTISSLQPEDFATYYCMQWSGYPYLFGQGTKVEIK
2. anti-IL-6 antibody, light chain M88V (heavy chain WT) (antibody, V domains shown, See note of m2; also called WT / M88V) VH: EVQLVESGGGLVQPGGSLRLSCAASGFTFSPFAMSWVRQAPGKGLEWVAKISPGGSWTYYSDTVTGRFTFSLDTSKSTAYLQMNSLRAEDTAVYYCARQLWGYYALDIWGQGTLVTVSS VL: DIQLTQSPSSLSASVGDRVTITCSASISVSYMYWYQQKPGKAPKLLIYDMSNLASGVPSRFSGSGSGTDFTLTISSLQPEDFATYYCVQWSGYPYTFGQGTKVEIK

[520000, 448000]
